Recorded values, source ChEMBL document CHEMBL3997848.

Target: Opioid receptor, delta 1b (Danio rerio)
Sequence (B3DH72 whole entry): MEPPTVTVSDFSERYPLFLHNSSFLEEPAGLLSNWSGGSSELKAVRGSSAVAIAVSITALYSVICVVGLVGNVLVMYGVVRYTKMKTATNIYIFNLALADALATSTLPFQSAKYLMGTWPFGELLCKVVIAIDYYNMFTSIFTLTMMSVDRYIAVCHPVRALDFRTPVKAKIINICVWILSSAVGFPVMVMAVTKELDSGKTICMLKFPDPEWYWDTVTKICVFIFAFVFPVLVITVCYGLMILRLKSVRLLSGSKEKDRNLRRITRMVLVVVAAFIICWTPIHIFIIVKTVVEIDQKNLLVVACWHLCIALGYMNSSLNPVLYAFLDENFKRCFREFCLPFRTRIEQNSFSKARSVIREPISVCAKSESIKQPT
Assay Procedure: Displacement of [3H]DPN from zebrafish delta 1b opioid receptor expressed in HEK293 cell membranes after 4 hrs by scintillation counting method
Square brackets hold non-standard residues; d marks the D form. Peptide text beside a SMILES is read from it.
Recorded log10(Ki) for the following compounds
For clarity, the numbers are log10 values of Ki expressed in nM.

Previously resolved entries follow.
| Compound | Target | log10(Ki) |
| --- | --- | --- |
| CSCC[C@@H](NC(=O)[C@@H](N)Cc1ccc(O)cc1)C(=O)NCC(=O)N[C@@H](Cc1ccccc1)C(=O)N1C[C@@H](O[C@H]2O[C@H](CO)[C@@H](O)[C@H](O)[C@@H]2O)C[C@H]1C(N)=O | Opioid receptor, delta 1b (Danio rerio) | 2.73 |
| CSCC[C@@H](NC(=O)[C@@H](N)Cc1ccc(O)cc1)C(=O)NCC(=O)N[C@@H](Cc1ccccc1)C(=O)N1CCC[C@H]1C(N)=O (H-Y[dM]GFP-NH2) | Opioid receptor, delta 1b (Danio rerio) | 2.41 |
| CSCC[C@H](NC(=O)[C@H](Cc1ccccc1)NC(=O)CNC(=O)CNC(=O)[C@@H](N)Cc1ccc(O)cc1)C(=O)O | Opioid receptor, delta 1b (Danio rerio) | 1.65 |

INPUT: # get_value(readout='log10(Ki)', item= CSCC[C@@H](NC(=O)[C@@H](N)Cc1ccc(O)cc1)C(=O)NCC(=O)N[C@@H](Cc1ccccc1)C(=O)N1C[C@@H](O[C@@H]2O[C@H](CO)[C@@H](O[C@H]3O[C@@H](CO)[C@@H](O)[C@@H](O)[C@@H]3O)[C@H](O)[C@H]2O)C[C@H]1C(N)=O )
OUTPUT: 2.75

INPUT: Return reported log10(Ki); argument: CSCC[C@@H](NC(=O)[C@@H](N)Cc1ccc(O)cc1)C(=O)NCC(=O)N[C@@H](Cc1ccccc1)C(=O)N1C[C@@H](O[C@@H]2O[C@H](CO)[C@@H](O)[C@H](O)[C@H]2O)C[C@H]1C(N)=O
OUTPUT: 2.20

INPUT: I have this compound here, CSCC[C@@H](NC(=O)[C@@H](N)Cc1ccc(O)cc1)C(=O)NCC(=O)N[C@@H](Cc1ccccc1)C(=O)N1C[C@@H](O[C@@H]2O[C@H](CO)[C@@H](O[C@H]3O[C@@H](CO)[C@H](O)[C@@H](O)[C@@H]3O)[C@H](O)[C@H]2O)C[C@H]1C(N)=O , and I need its recorded log10(Ki).
OUTPUT: 2.72

INPUT: Sample CSCC[C@@H](NC(=O)[C@@H](N)Cc1ccc(O)cc1)C(=O)NCC(=O)N[C@@H](Cc1ccccc1)C(=O)N1C[C@@H](O[C@@H]2O[C@H](CO)[C@H](O)[C@H](O)[C@H]2O)C[C@H]1C(N)=O — what was its log10(Ki)?
OUTPUT: 2.71

* * *

Square brackets hold non-standard residues; d marks the D form. Peptide text beside a SMILES is read from it.
Lab note: pKi readings collected with Mu opioid receptor-like OR2 (Danio rerio) for the following compounds.
Sequence (B8JHS2 whole entry): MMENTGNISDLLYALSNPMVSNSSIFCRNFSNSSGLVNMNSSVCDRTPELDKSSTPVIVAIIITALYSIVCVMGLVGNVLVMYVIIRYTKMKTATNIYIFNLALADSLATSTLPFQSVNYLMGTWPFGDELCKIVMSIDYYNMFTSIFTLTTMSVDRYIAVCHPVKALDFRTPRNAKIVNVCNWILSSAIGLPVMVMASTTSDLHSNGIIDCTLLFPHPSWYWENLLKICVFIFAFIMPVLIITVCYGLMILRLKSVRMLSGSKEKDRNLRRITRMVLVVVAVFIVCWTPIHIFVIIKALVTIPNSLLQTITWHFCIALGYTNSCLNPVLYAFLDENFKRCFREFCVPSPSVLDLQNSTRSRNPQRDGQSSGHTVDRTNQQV
The quantity pKi is defined as the negative base-10 logarithm of the molar concentration.

Some solved entries appear below for comparison.
| Compound | Measured Value |
| --- | --- |
| CSCC[C@@H](NC(=O)[C@@H](N)Cc1ccc(O)cc1)C(=O)NCC(=O)N[C@@H](Cc1ccccc1)C(=O)N1C[C@@H](O[C@@H]2O[C@H](CO)[C@@H](O[C@H]3O[C@@H](CO)[C@H](O)[C@@H](O)[C@@H]3O)[C@H](O)[C@H]2O)C[C@H]1C(N)=O | 6.65 |
| CSCC[C@@H](NC(=O)[C@@H](N)Cc1ccc(O)cc1)C(=O)NCC(=O)N[C@@H](Cc1ccccc1)C(=O)N1C[C@@H](O[C@@H]2O[C@H](CO)[C@H](O)[C@H](O)[C@H]2O)C[C@H]1C(N)=O | 6.42 |
| CSCC[C@H](NC(=O)[C@H](Cc1ccccc1)NC(=O)CNC(=O)CNC(=O)[C@@H](N)Cc1ccc(O)cc1)C(=O)O | 6.16 |
| CSCC[C@@H](NC(=O)[C@@H](N)Cc1ccc(O)cc1)C(=O)NCC(=O)N[C@@H](Cc1ccccc1)C(=O)N1C[C@@H](O[C@@H]2O[C@H](CO)[C@@H](O[C@H]3O[C@@H](CO)[C@@H](O)[C@@H](O)[C@@H]3O)[C@H](O)[C@H]2O)C[C@H]1C(N)=O | 6.69 |
| CSCC[C@@H](NC(=O)[C@@H](N)Cc1ccc(O)cc1)C(=O)NCC(=O)N[C@@H](Cc1ccccc1)C(=O)N1CCC[C@H]1C(N)=O (H-Y[dM]GFP-NH2) | 6.57 |
| CSCC[C@@H](NC(=O)[C@@H](N)Cc1ccc(O)cc1)C(=O)NCC(=O)N[C@@H](Cc1ccccc1)C(=O)N1C[C@@H](O[C@H]2O[C@H](CO)[C@@H](O)[C@H](O)[C@@H]2O)C[C@H]1C(N)=O | 6.62 |

INPUT: Record CSCC[C@@H](NC(=O)[C@@H](N)Cc1ccc(O)cc1)C(=O)NCC(=O)N[C@@H](Cc1ccccc1)C(=O)N1C[C@@H](O[C@@H]2O[C@H](CO)[C@@H](O)[C@H](O)[C@H]2O)C[C@H]1C(N)=O : what is its pKi with Mu opioid receptor-like OR2 (Danio rerio)?
OUTPUT: 6.51
